# Tested on: Schistosoma mansoni
# Experimental protocol: MMV: Motility assay. Percent change (relative to DMSO controls) @ 5 uM of movement of 4-5 Schistosoma mansoni adult males after 48 h as measured by the Consensus Voting Luminance Difference algorithm available on WormAssay (PMID:22303493). Occasional incongruence ocurrs between the motility scores and the visually adjudicated 'toxicity scores'. In these cases the 'toxicity score' should be prioritized. Only those Malaria box 'Drug-like' cpds yielding the most severe phenotypes vs. somules were tested. Caffrey group UCSF.
# Assay type: functional
Mark criterion met only for Motility values smaller than 80; exact matches and larger values are criterion not met.

INSERT INTO assay_data (molecule, answer_label) VALUES
  ('CC1CCN(Cc2ccc(NC(=O)c3cc4ccc5cccnc5c4[nH]3)cc2)CC1', 'criterion not met'),
  ('CC(C)(C)CC(C)(C)NCC(O)COc1ccc2c(c1)CCC2.Cl (configuration not stated)', 'criterion not met'),
  ('CC(C)OCc1cc(CN2CCN(c3cccc(Cl)c3)CC2)c(O)c2ncccc12', 'criterion met'),
  ('Clc1ccc2c(N3CCCC3)ccnc2c1', 'criterion not met'),
  ('CCN(CC)CCCNc1nc(-c2ccc(Cl)cc2)nc2ccccc12', 'criterion not met'),
  ('Cl.Clc1cc(Br)ccc1-c1ccc(CNCC2CCNCC2)o1', 'criterion met'),
  ('OC(CNC1CCCC1)Cn1c2ccccc2c2ccccc21 (configuration not stated)', 'criterion not met'),
  ('CC(C)(C)CC(C)(C)NCC(O)COc1ccc(Cl)cc1Cl (configuration not stated)', 'criterion met'),
  ('COCCNCC(O)Cn1c2ccc(Cl)cc2c2cc(Cl)ccc21 (configuration not stated)', 'criterion not met'),
  ('COc1ccc(CNC2CCN(c3ccc(NC(=O)c4cccc(Cl)c4)cc3)CC2)cc1OC', 'criterion met'),
  ('CCCCc1ccc(NS(=O)(=O)c2cc3c4c(c2)CCN4C(=O)CC3)cc1', 'criterion not met'),
  ('Oc1c(CN2CCN(c3ccccc3F)CC2)cc(Br)c2cccnc12', 'criterion met');

* * *

The following compounds are shown together with reported Toxicity values.
# Tested on: Schistosoma mansoni
# Assay type: functional
# Parameters: scale not given here
Endpoint: Toxicity

INSERT INTO assay_data (compound, measured_value) VALUES
  ('Br.CCN(CC)S(=O)(=O)c1ccc(-c2csc(Nc3ccc(C)c(C)c3)n2)cc1', 2),
  ('CN1c2ccccc2N(C)C1c1ccc2c(c1)OCO2', 1),
  ('CCCN(CCC)CCCNC(=O)c1cc2c(-c3ccc(OC)c(OC)c3)nn(C)c2s1', 0),
  ('CCOc1ccc(Nc2c3ccccc3nc3ccccc23)cc1.Cl', 2),
  ('COc1ccc2nc(C)cc(Nc3ccc(Cl)cc3)c2c1', 3),
  ('CCOc1cc(Cl)c(C(C)NC(=O)c2cccc(OC)c2)cc1OCC (centres undefined)', 1),
  ('COc1ccc(C(=O)Nc2ccc(Cl)cc2C(=O)Nc2ccncc2)cc1', 0),
  ('CCCCc1c(CCC)c(=N)c2ccccc2n1C.I', 0),
  ('O=c1nc(C=Cc2ccc(Br)cc2)oc2ccccc12', 2),
  ('O=C(CCl)NCCOc1ccc(Cl)cc1Cl', 0),
  ('Cc1sc(NC(=O)c2ccco2)c(C(c2cccnc2)N2CCC(Cc3ccccc3)CC2)c1C (centres undefined)', 1),
  ('CC(O)(c1ccc(Cl)cc1)C(CN1CCCCC1)c1ccccc1.Cl (centres undefined)', 0),
  ('COc1ccc(C(C)=O)cc1N1C(=O)C2C(C1=O)C1(c3ccccc3)C(=O)C2(c2ccccc2)C(c2ccc(C)cc2)=C1c1ccc(C)cc1 (centres undefined)', 0),
  ('O=C(Nc1ccc(CN2CCOCC2)cc1)c1ccc(-c2ccc(Br)cc2)o1', 0),
  ('Cc1ccc(Cl)cc1N1CCN(CCCNC(=O)C2CCN(c3nc4ccccc4[nH]3)CC2)CC1', 0),
  ('O=C(Nc1ccccc1O)c1ccc(-c2ccc(Cl)cc2Cl)o1', 0),
  ('COc1cccc(Cn2c(Oc3ccccc3)nc3c2c(=O)n(C)c(=O)n3C)c1', 0),
  ('O=C1c2ccccc2-c2nnc(-c3ccc(Br)cc3)cc21', 0),
  ('Brc1ccc(Nc2nc3ccccc3nc2Nc2ccc(Br)cc2)cc1', 3),
  ('CCOC(=O)c1ccc2nc(-c3ccccc3)cc(O)c2c1', 0),
  ('CN(C)c1ccc(C(O)(c2ccc(N(C)C)cc2)c2ccc(N(C)C)cc2)cc1', 2),
  ('COc1cccc(Nc2nc(NCCO)c3ccccc3n2)c1.Cl', 0),
  ('COc1ccc(C2c3ccc4ccccc4c3Oc3ncn(CCCn4ccnc4)c(=N)c32)cc1OC (centres undefined)', 0),
  ('Cc1ccc(Cn2c(N3CCC(C(=O)NCc4cccs4)CC3)nc3ccccc32)cc1', 0),
  ('CCOc1ccc(CCNC(=O)c2cccs2)cc1OCC', 0),
  ('COc1cc2c3cc1Oc1c(OC)c(OC)cc4c1C(Cc1ccc(O)c(c1)Oc1ccc(cc1)CC3N(C)CC2)N(C)CC4.Cl (centres undefined)', 2),
  ('CCC(C)NCC(O)(c1ccc(Cl)cc1)c1ccc(Cl)cc1 (centres undefined)', 1),
  ('CSC1=NC(=Nc2c(C)cccc2C)C2(CCC(C(C)(C)C)CC2)N1c1ccc(Cl)cc1 (centres undefined)', 1),
  ('O=C(CCc1ccccc1)c1ccccc1OCC(O)CN1CCCCC1 (centres undefined)', 1),
  ('O=C(NC1CCN(Cc2ccccc2)CC1)c1cc(-c2cccnc2)nc2ccc(Cl)cc12', 0),
  ('Cc1cc(Nc2ccc(Cl)cc2)n2nc(C(F)(F)F)nc2n1', 0),
  ('CC(C)CCNCC(O)Cn1c2ccccc2c2ccccc21.Cl (centres undefined)', 2),
  ('COc1ccc2nc(N)nc(C)c2c1', 0),
  ('CCOc1cc2c(cc1OCC)C(c1cc(Cl)ccc1O)NCC2 (centres undefined)', 0),
  ('COc1ccc(CCNC(=O)c2cc(S(=O)(=O)N3CC(C)CC(C)C3)ccc2Sc2ccc(F)cc2)cc1OC (centres undefined)', 4),
  ('O=C1c2ccc3c4c(ccc(c24)C(=O)N1CCCCO)C(=O)N(CCCCO)C3=O', 0),
  ('Cc1ccc(NC(=O)Nc2cccc(Cl)c2)cc1F', 1),
  ('Fc1ccc2[nH]c3c(NCCCN4CCOCC4)ncnc3c2c1', 0),
  ('COc1ccc(CCn2c(=N)c(C(=O)NCc3cccnc3)cc3c(=O)n4cccc(C)c4nc32)cc1', 2),
  ('O=C(CSc1ccc2nnc(-c3cccc(F)c3)n2n1)Nc1ccc2c(c1)OCO2', 0),
  ('Cn1c(=O)c2cc(C(=O)NCCCN3CCCCCC3)sc2c2ccccc21', 0),
  ('Cc1ccc(-c2nc3ccccc3o2)cc1NCc1cc(Cc2ccccc2)ccc1O', 0),
  ('COc1ccc(/C=C2/SC(=Nc3ccccc3)NC2=O)cc1', 0),
  ('COc1cccc(C(=O)Nc2ccc(-c3nc4ccccc4[nH]3)cc2)c1', 0);
